Target: Luciferin 4-monooxygenase (Photinus pyralis) (UniProt P08659)
Sequence (P08659 whole entry, looked up): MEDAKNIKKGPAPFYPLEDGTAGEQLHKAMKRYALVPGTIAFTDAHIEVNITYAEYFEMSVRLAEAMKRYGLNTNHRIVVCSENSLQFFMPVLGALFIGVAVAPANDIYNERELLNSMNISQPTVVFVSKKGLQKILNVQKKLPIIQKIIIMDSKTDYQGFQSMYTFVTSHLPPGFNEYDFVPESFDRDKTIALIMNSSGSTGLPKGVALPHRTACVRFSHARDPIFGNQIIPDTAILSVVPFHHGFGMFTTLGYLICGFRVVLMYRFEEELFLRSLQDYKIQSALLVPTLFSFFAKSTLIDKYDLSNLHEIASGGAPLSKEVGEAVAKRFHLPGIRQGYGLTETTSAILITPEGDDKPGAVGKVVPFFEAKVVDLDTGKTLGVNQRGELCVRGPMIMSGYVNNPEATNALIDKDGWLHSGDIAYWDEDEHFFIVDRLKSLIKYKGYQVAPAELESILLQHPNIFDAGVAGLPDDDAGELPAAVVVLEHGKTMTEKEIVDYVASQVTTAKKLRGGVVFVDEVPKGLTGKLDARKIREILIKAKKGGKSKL
Assay: qHTS profiling assay for firefly luciferase inhibitor/activator using purifed enzyme and Km concentrations of substrates (counterscreen for miR-21 project); note: nearly all actives have a fitted effect of over 55% in size; note: potency is the fitted concentration of half-maximal effect
Conditions: purified FLuc, luminescence inhibition; series mostly up to 57.5 µM
Screen size: about 360,000 compounds; about 25,000 (6.9%) were called active. About 9% were inconclusive and are not listed. The list comes from a sample in which actives are over-represented; it also holds close analogues and randomly drawn compounds.

[
  {
    "molecule": "O=C(Nc1ccc(Cl)cc1)Nc1ccc(Oc2cccnc2)nc1",
    "Potency": "inactive"
  },
  {
    "molecule": "COC(=O)[C@]1(C)N[C@H](c2ccc(-c3ccc(Cl)c(Cl)c3)cc2)[C@@H]2C(=O)N(C)C(=O)[C@@H]21",
    "Potency": "15.1 µM (active)"
  },
  {
    "molecule": "Cc1occc1C(=O)Nc1cccc(Cn2cccn2)c1",
    "Potency": "inactive"
  },
  {
    "molecule": "COC(=O)C1(C)NC(c2ccc(C)cc2)C2C(=O)N(c3ccc(F)cc3)C(=O)C21 (configuration not stated)",
    "Potency": "inactive"
  },
  {
    "molecule": "Cc1nonc1C1CCCN1C(=O)c1cc(COc2cccc(C(F)(F)F)c2)on1 (configuration not stated)",
    "Potency": "inactive"
  },
  {
    "molecule": "COc1cc(SC)ccc1C(=O)NCCOc1ccccc1Cl",
    "Potency": "6.01 µM (active)"
  },
  {
    "molecule": "Cc1ccc(OC(=O)c2cc3ccccc3o2)cc1",
    "Potency": "0.757 µM (active)"
  },
  {
    "molecule": "Cc1cc(C(=O)CCl)c(C)n1CC1COc2ccccc2O1 (configuration not stated)",
    "Potency": "inactive"
  },
  {
    "molecule": "O=C1N(Cc2ccc3c(c2)OCO3)c2ccccc2C1(O)c1c[nH]c2ccccc12 (configuration not stated)",
    "Potency": "inactive"
  },
  {
    "molecule": "CCOc1ccc(S(=O)(=O)N2CCC(C(=O)NCC(=O)Nc3cccc(Cl)c3C)CC2)cc1",
    "Potency": "inactive"
  },
  {
    "molecule": "CC(C)(C)OC(=O)N1CCC(C(=O)NNC(=O)c2ccc(Cl)cc2Cl)CC1",
    "Potency": "inactive"
  },
  {
    "molecule": "CCc1ccc(-c2nc(SCC(=O)NC3CCCC3)n[nH]2)cc1",
    "Potency": "19 µM (active)"
  },
  {
    "molecule": "COc1ccc(OC(C)C(=O)NCCc2nc3ccccc3[nH]2)cc1 (configuration not stated)",
    "Potency": "inactive"
  },
  {
    "molecule": "COc1ccc(CNC(=O)CSc2n[nH]c(-c3ccc(F)cc3)n2)cc1",
    "Potency": "inactive"
  },
  {
    "molecule": "c1ccc(-c2nnc(SCc3nc4ccccc4[nH]3)o2)cc1",
    "Potency": "inactive"
  },
  {
    "molecule": "Cc1ccc(/C=C2\\SC(=S)N(CCC(=O)Nc3ccc(O)cc3)C2=O)cc1",
    "Potency": "inactive"
  },
  {
    "molecule": "CCC(C)c1ccc2oc(-c3ccc(NC(=O)c4cc5ccccc5o4)cc3)nc2c1 (configuration not stated)",
    "Potency": "inactive"
  },
  {
    "molecule": "CCOC(=O)CC1(NC(=O)c2cc(COc3cncc(Cl)c3)on2)CCCCC1",
    "Potency": "inactive"
  },
  {
    "molecule": "C=CCOc1ccc(/C=C2\\SC(=S)N(CCC(=O)O)C2=O)cc1",
    "Potency": "1.69 µM (active)"
  },
  {
    "molecule": "Cc1csc(NC(=O)CSc2nc(=O)cc(N)n2-c2ccc(F)cc2)n1",
    "Potency": "inactive"
  },
  {
    "molecule": "O=C(Nc1ccc(O)c(-c2nc3ccccc3o2)c1)c1ccc(-c2cccc(Cl)c2)o1",
    "Potency": "inactive"
  },
  {
    "molecule": "COc1cccc(OC)c1OCCN1CCN(C(=O)c2ccco2)CC1",
    "Potency": "inactive"
  },
  {
    "molecule": "O=C(CCN1c2ccccc2Sc2ccccc21)Nc1ccccc1",
    "Potency": "inactive"
  },
  {
    "molecule": "Cc1ccsc1C(=O)OCC(=O)c1cc(C)n(CC2CCCO2)c1C (configuration not stated)",
    "Potency": "0.151 µM (active)"
  },
  {
    "molecule": "COC(=O)c1cc(NC(=O)c2cnc(SC)nc2-c2ccccc2)cc(C(=O)OC)c1",
    "Potency": "inactive"
  },
  {
    "molecule": "CCOC(=O)[C@H]1[C@H]2COc3cc(OC)ccc3[C@@H]2N2C(=O)N(c3ccc(Br)cc3)C(=O)[C@@]12C",
    "Potency": "inactive"
  },
  {
    "molecule": "Clc1ccccc1SCc1nc2ccccc2[nH]1",
    "Potency": "13.5 µM (active)"
  },
  {
    "molecule": "S=C(c1ccc(-c2ccccc2)o1)N1CCCCC1",
    "Potency": "2.69 µM (active)"
  },
  {
    "molecule": "O=C(CNc1ccccc1N1CCCC1=O)Nc1cc(Cl)ccc1-n1cncn1",
    "Potency": "inactive"
  },
  {
    "molecule": "O=C(c1ccc(Cl)c(Cl)c1)N1CCCC1",
    "Potency": "inactive"
  },
  {
    "molecule": "COc1ccccc1OCCNC(=O)CCNC(=O)c1ccccc1Cl",
    "Potency": "inactive"
  },
  {
    "molecule": "O=C(c1ccc(F)cc1)N1CCCC(c2nc(-c3cccs3)no2)C1 (configuration not stated)",
    "Potency": "inactive"
  }
]

----------
Target: Luciferin 4-monooxygenase (Photinus pyralis) (UniProt P08659)
Experiment: qHTS profiling assay for firefly luciferase inhibitor/activator using purifed enzyme and Km concentrations of substrates (counterscreen for miR-21 project); note: nearly all actives have a fitted effect of over 55% in size
Conditions: purified FLuc, luminescence inhibition; series mostly up to 57.5 µM
About 25,000 (6.9%) of roughly 360,000 compounds were called active. Roughly 9% stayed inconclusive and do not appear here. Calls follow the shape of the dose curve; as a rule, active = well fitted inhibition curve with a large enough effect; inconclusive = small, poorly fitted or top-dose-only effect; inactive = flat fitted curve, though single readings scatter. The list comes from a sample in which actives are over-represented; it also holds close analogues and randomly drawn compounds.
Classes used: yes (1) (active), no (0) (inactive)

[
  {
    "smilesStr": "Cc1nnc2n1N=C(c1ccc3c(c1)NC(=O)CO3)CS2",
    "testTarget": "Luciferin 4-monooxygenase (Photinus pyralis) (UniProt P08659)",
    "cat": "no (0)"
  },
  {
    "smilesStr": "O=C(Nc1cccc([N+](=O)[O-])c1)c1ccc2c(c1)OCO2",
    "testTarget": "Luciferin 4-monooxygenase (Photinus pyralis) (UniProt P08659)",
    "cat": "yes (1)"
  },
  {
    "smilesStr": "O=C(Nc1ccccc1)c1ccc2c(c1)OCO2",
    "testTarget": "Luciferin 4-monooxygenase (Photinus pyralis) (UniProt P08659)",
    "cat": "yes (1)"
  },
  {
    "smilesStr": "Cc1ccc(-n2nc3c(c2NC(=O)c2ccc4c(c2)OCO4)CSC3)c(C)c1",
    "testTarget": "Luciferin 4-monooxygenase (Photinus pyralis) (UniProt P08659)",
    "cat": "no (0)"
  },
  {
    "smilesStr": "Cc1ccc(C)c(OCC(=O)NNC(=O)C2CCC2)c1",
    "testTarget": "Luciferin 4-monooxygenase (Photinus pyralis) (UniProt P08659)",
    "cat": "no (0)"
  },
  {
    "smilesStr": "Cc1c(C(=O)N/N=C/c2ccccc2)[nH]c2c([N+](=O)[O-])cccc12",
    "testTarget": "Luciferin 4-monooxygenase (Photinus pyralis) (UniProt P08659)",
    "cat": "no (0)"
  },
  {
    "smilesStr": "CCN(CC(=O)Nc1ccc2c(c1)OCO2)S(=O)(=O)c1ccccc1",
    "testTarget": "Luciferin 4-monooxygenase (Photinus pyralis) (UniProt P08659)",
    "cat": "no (0)"
  },
  {
    "smilesStr": "O=C(Nc1ccc2c(c1)OCO2)c1cc(-c2cccc(Cl)c2)on1",
    "testTarget": "Luciferin 4-monooxygenase (Photinus pyralis) (UniProt P08659)",
    "cat": "no (0)"
  },
  {
    "smilesStr": "CC(C)(C)c1ccc(/C=C2\\Oc3c(ccc(O)c3CN3CCN(CCO)CC3)C2=O)cc1",
    "testTarget": "Luciferin 4-monooxygenase (Photinus pyralis) (UniProt P08659)",
    "cat": "no (0)"
  },
  {
    "smilesStr": "CN(CC(=O)Nc1cccc(F)c1)CC(=O)Nc1cccc([N+](=O)[O-])c1",
    "testTarget": "Luciferin 4-monooxygenase (Photinus pyralis) (UniProt P08659)",
    "cat": "no (0)"
  }
]
